Numbers sourced from patent US9326978B2.

biological target: human A3ARs (Homo sapiens (Human), UniProt P0DMS8); test: Cyclic AMP accumulation assay, efficacy at hA3AR; format: cell-based; details: compared to maximal effect by 2-Cl-IB-MECA alone (control = 100%)
Sequence (P0DMS8 whole entry): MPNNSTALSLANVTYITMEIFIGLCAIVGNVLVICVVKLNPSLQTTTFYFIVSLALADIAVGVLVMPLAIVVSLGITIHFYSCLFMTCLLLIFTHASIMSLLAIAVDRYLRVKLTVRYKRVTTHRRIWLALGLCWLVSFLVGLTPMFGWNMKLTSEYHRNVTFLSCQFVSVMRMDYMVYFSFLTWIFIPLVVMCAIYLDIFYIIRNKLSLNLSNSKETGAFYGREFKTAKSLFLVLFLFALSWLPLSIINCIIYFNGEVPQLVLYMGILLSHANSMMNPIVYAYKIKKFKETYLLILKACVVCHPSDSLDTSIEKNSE
Quick reference for % Increase of efficacy at hA3AR at 10 μM among some compounds
Please respond with the number in % and leave the unit unwritten.

Example results:
compound="OCc1cccc(Nc2nc3ccccc3c3[nH]c(C4CCCC4)nc23)c1 [Compound 35]" test_result=118
compound="Clc1ccc(Nc2nc3ccccc3c3[nH]c(C4CCCC4)nc23)cc1 [Compound 34]" test_result=136
compound="Clc1ccc(Nc2nc3ccccc3c3[nH]c(C4CCCCC4)nc23)cc1Cl [Compound 45]" test_result=145

INPUT: Form field: reported % Increase of efficacy at hA3AR at 10 μM of Clc1ccc(Nc2nc3ccccc3c3[nH]c(C4CCCC4)nc23)cc1Cl [Compound 33]
OUTPUT: 141
